Assay: Cytotoxicity in uninfected MRC-5 cells (anti-echoviral/-enteroviral assay, XTT)
Type: cell-based
Settings: human, 50% cytotoxic dose
MEASURED_METRIC: CC50 at 4 days

Check out these entries, answers already filled in.
CCOC(=O)/C=C/[C@H](C[C@@H]1CCNC1=O)NC(=O)[C@@H](CC(=O)[C@@H](NC(=O)c1cc(C)on1)C(C)C)Cc1ccc(F)cc1 = > 100 µM
CCOC(=O)c1ccc(OCCC2CCN(c3ccc(C)nn3)CC2)cc1 [Pirodavir, reference compound] = > 10 µM
Cc1cc(CCCOc2c(C)cc(-c3noc(C(F)(F)F)n3)cc2C)on1 [Pleconaril, reference compound] = > 10 µM

Okay, now this compound:
If you can, please state the reported CC50 at 4 days value of CCOC(=O)/C=C/[C@H](C[C@@H]1CCNC1=O)NC(=O)[C@H](Cc1ccc(F)cc1)NC(=O)[C@@H](NC(=O)c1cc(C)on1)C(C)C . > 10 µM
